// data source = patent US20220290196A1

System: Tar14
method_description: Tar14 in vitro halogenation assay with substrate analogues
Format: biochemical, Saccharomonospora sp. CNQ-490
settings: NaCl 100 mM; substrate 0.25 mM; Tar14 5 μM; 30° C., 4 h
reported_metric: Enzyme assays, % conversion, Tar14, Cl^−

>>> result("N[C@@H](Cc1c[nH]c2ccccc12)C(=O)O")
"100%"
>>> result("N[C@@H](Cc1c[nH]c2ccc(Br)cc12)C(=O)O")
"<1%"
>>> result("N[C@@H](Cc1c[nH]c2ccc(Cl)cc12)C(=O)O")
"<1%"
>>> result("Nc1cc(Cl)ccc1C(=O)CC(N)C(=O)O (stereo not shown)")
"<1%"
